Source: PubChem BioAssay (NCI)

# Tested on: 786-0 renal
# measurement.protocol: NCI tumour cell line growth inhibition, 48 h
measured.quantity: TGI

Below are worked cases with known answers.
compound=COc1c(O)c(O)c2c(c1O)C(=O)c1cc(C)cc(O)c1C2=O measured_value="> 100 µM"
compound=O=C1C(c2c(O)[nH]c3ccccc23)=Nc2ccc(Br)cc21 measured_value="28.8 µM"
compound=CC(C)n1c(=O)[nH]n(-c2ccccc2)c1=O measured_value="> 100 µM"
compound=Cc1sc(Nc2ccccc2[N+](=O)[O-])c(C#N)c1C measured_value="61.7 µM"

Q: Which TGI reading was recorded for the compound CCCC(=O)NC(C(=O)OCC)(N1CCOCC1)C(F)(F)F (configuration not stated) ?
A: > 100 µM

Q: What TGI value was documented for this compound, `Brc1ccccc1C=NC12CC3CC(CC(C3)C1)C2` ?
A: > 100 µM

Q: Can you share its TGI? I mean this compound: `CCOC(=O)c1c[nH]cc1-c1cn(S(=O)(=O)c2ccccc2)cc1C`
A: > 100 µM

Q: # input compound: O=C1C(=c2cc3c(c4ccccc24)=NC24CCCCC2C(c2ccccc2)C=C(c2ccccc2)N34)C(=O)c2ccccc21 (configuration not stated) ; wanted: its TGI
A: > 100 µM

Q: # get_value(readout='TGI', item= CCC1c2[nH]c3ccccc3c2C[C@H]2C(=O)N3CCC[C@H]3C(=O)N12 (some centres not stated) )
A: > 100 µM

Q: Entry `O=C(NCCNc1nccc(-c2c(-c3ccc(F)cc3)nc3sccn23)n1)c1ccccc1` has what TGI?
A: > 100 µM

Q: Endpoint output: TGI of `CCOC(=O)N1CCN(c2nc(C)n(-c3ccccc3)c(=S)c2C#N)CC1` . Value?
A: > 100 µM

Q: Could you tell me which TGI is on file for `C(=NCCCN1CCN(CCCN=Cc2cccc3ccccc23)CC1)c1cccc2ccccc12` ?
A: > 100 µM

Q: Tell me the measured TGI of `CCOC(=O)c1[nH]cc(C)c1-c1c[nH]c2ccccc12` , please.
A: > 100 µM

Q: For the compound `COc1ccc(CCN2CCC(Nc3nc4ccccc4n3Cc3ccc(F)cc3)CC2)cc1` , what TGI is on record?
A: 2.77 µM

Q: Record request: TGI value, item `CCOC(=O)C(C(=O)OCC)=C1N[C@H](C(=O)OCC)CS1`
A: > 100 µM

Q: What TGI value was documented for this compound, CSc1nc2c(c(=O)[nH]1)N=C(c1ccc(Cl)cc1)CC(c1ccccc1)N2 (configuration not stated) ?
A: 30 µM

Q: Endpoint output: TGI of CNC(=O)NC(CCCCNC(=O)OCc1ccccc1)C(=O)OCc1ccccc1 (configuration not stated) . Value?
A: > 100 µM

Q: What value of TGI has been reported for the following compound? `Cc1coc2c1C(=O)C(=O)c1c-2ccc2c1CCCC2(C)C`
A: 8.62 µM

Q: TGI for `CCCC(=O)Nc1ccc2c(c1)CN1C(=O)c3ccccc3C1=N2` ?
A: > 100 µM

Q: Looking for the measured TGI of `O=C1OC(c2ccccc2)=N/C1=C\c1cc(Cl)ccc1Cl` , can you help?
A: > 100 µM
